Assay explanation: in vitro
Protocol conditions: human, hela cells, % viability
Parameter: viability at 28.5 h, 10 µM (%)

{"Compound": "COC(=O)c1ccc(-c2cn3ccnc3c(NCc3ccncc3)n2)cc1 [CBK066734]", "Value": 88.2}
{"Compound": "COc1cc(Nc2cccc(-c3ccsc3)n2)cc(OC)c1OC [CBK036987]", "Value": 97.9}
{"Compound": "O=C(O)CC(C(=O)O)c1ccc(Cl)cc1Cl (stereo not shown) [CBK268523]", "Value": 95.5}
{"Compound": "CCOC(=O)c1c2c([nH]c(=S)c1C#N)CCCC2 [CBK020049]", "Value": 97.6}
{"Compound": "Cc1cc(C)n(CCCn2cncc2-c2cnn(C)c2)n1 [CBK281771]", "Value": 84.9}
{"Compound": "CCCn1c(NC(=O)C(C)Oc2ccc(Cl)cc2Cl)nc2ccccc21 (stereo not shown) [CBK296979]", "Value": 108}
{"Compound": "Nc1cc(=O)[nH]c(=O)n1CCc1ccccc1 [CBK269984]", "Value": 86}
{"Compound": "O=C(CN1CCCC1)NC1CCCc2c1cnn2-c1ccc(F)cc1 (stereo not shown) [CBK283930]", "Value": 91.5}
{"Compound": "COc1ccc(C2C(C(C)=O)=C(O)C(=O)N2CCC(=O)O)cc1 (stereo not shown) [CBK263763]", "Value": 97.3}
{"Compound": "COC(=O)c1cc(S(=O)(=O)N2c3ccccc3CC2C)cn1C (stereo not shown) [CBK304384]", "Value": 81.4}

====

Assay explanation: in vitro
Protocol conditions: human, hela cells, % viability
Listed below: viability at 28.5 h, 10 µM values for each entry.
Parameter: viability at 28.5 h, 10 µM (%)

{"Compound": "CC1CCN(S(=O)(=O)c2cc(S(=O)(=O)N3CCC(C)CC3)c3cccc4c3c2NC4=O)CC1 [CBK263716]", "Value": 91.2}
{"Compound": "O=C(O)c1ccc(Cl)c(S(=O)(=O)N2CCCC2C(=O)O)c1 (stereo not drawn) [CBK265733]", "Value": 103}
{"Compound": "CC(C)OC(=O)N1CCC(N(C)Cc2ccc(-c3ccc(S(C)(=O)=O)cc3)nc2)CC1 [CBK165261T]", "Value": 121}
{"Compound": "COc1ccc(CNC(=O)c2cc(S(=O)(=O)N3CCOCC3)cs2)cc1 [CBK307577]", "Value": 95.7}
{"Compound": "CC(C)c1ccc(CNC(=O)c2ccc3[nH]ccc3c2)cc1 [CBK161754]", "Value": 96.1}
{"Compound": "CC(=O)N[C@H]1CO[C@H]2[C@@H]1OC[C@H]2OC(=O)Nc1ccc(Oc2ccccc2)cc1 [CBK289470]", "Value": 113}
{"Compound": "Cc1oc(C(=O)Nc2cccc(CCc3ccncc3)c2)cc1CN1CCOCC1 [CBK285547]", "Value": 92.8}
{"Compound": "NC(=O)c1cc([N+](=O)[O-])ccc1NCCN1C(=O)c2ccc(C(=O)O)cc2C1=O [CBK264444]", "Value": 105}
{"Compound": "Cc1ccc(-c2nccnc2OCc2ccccn2)c(C)c1 [CBK106979]", "Value": 90.7}

====

Listed below: viability at 28.5 h, 10 µM values for each entry.
Assay explanation: in vitro
Protocol conditions: human, hela cells, % viability
Parameter: viability at 28.5 h, 10 µM (%)

{"Compound": "O=C(O)c1cc(NC(=O)c2ccc3c(c2)C(=O)N(Cc2cccnc2)C3=O)cc(C(=O)O)c1", "Value": 108}
{"Compound": "O=C(CC1S/C(=N/N=C/c2ccc(-c3ccc(Cl)c([N+](=O)[O-])c3)o2)NC1=O)Nc1ccccc1 (stereo not shown)", "Value": 92.9}
{"Compound": "CCOc1ccc(C(=O)C2=C(O)C(=O)N(CCN3CCOCC3)C2c2ccc(N(C)C)cc2)c(C)c1 (stereo not shown)", "Value": 92.7}
{"Compound": "Cc1sc(-c2cccs2)nc1OC(=O)c1cccc(C(F)(F)F)c1", "Value": 96.1}

====

Assay explanation: in vitro
Protocol conditions: human, hela cells, % viability
Listed below: viability at 28.5 h, 10 µM values for each entry.

{"Compound": "NC(=S)c1ccc2c(c1)OCO2", "viability at 28.5 h, 10 µM / %": 86.3}
{"Compound": "Fc1cc2c3c(c1)c1c(n3CCO2)CCNCC1 [CBK018018C]", "viability at 28.5 h, 10 µM / %": 102}
{"Compound": "CC1=CC(C)C(C(=O)O)C(C(=O)N2CCN(C)CC2)C1 (stereo not shown) [CBK027311G]", "viability at 28.5 h, 10 µM / %": 97.7}
{"Compound": "Cc1cc(-n2c(C)cc(C(=O)CSc3n[nH]c(=O)n3CC3CCCO3)c2C)no1 (stereo not shown)", "viability at 28.5 h, 10 µM / %": 112}
{"Compound": "N#Cc1ccc(NC(=O)NCCc2cccs2)cc1", "viability at 28.5 h, 10 µM / %": 115}
{"Compound": "O=C(Nn1cnnc1)c1ccc(C(=O)Nn2cnnc2)cc1", "viability at 28.5 h, 10 µM / %": 101}
{"Compound": "c1ccc2c(OCc3nc4ccccc4[nH]3)cccc2c1", "viability at 28.5 h, 10 µM / %": 106}
{"Compound": "CC(NC(=O)N1CCC2(CC1)NC(=O)Cc1ccccc12)c1cccc2ccccc12 (stereo not shown)", "viability at 28.5 h, 10 µM / %": 84}
{"Compound": "O=C(Nc1ccncc1)c1ccc(S(=O)(=O)N2CCCC2)cc1", "viability at 28.5 h, 10 µM / %": 106}
{"Compound": "Cc1cc(S(=O)(=O)NCC(=O)OC(C)C)c(C)cc1Cl", "viability at 28.5 h, 10 µM / %": 101}
{"Compound": "Cc1ccc(CN2C(=O)CSC2c2cn(-c3ccccc3)nc2-c2ccccc2)cc1 (stereo not shown)", "viability at 28.5 h, 10 µM / %": 94.5}
{"Compound": "Cc1sc2nc(SCCCC(=O)NCCO)nc(N)c2c1C", "viability at 28.5 h, 10 µM / %": 96.2}
{"Compound": "O=C(Nc1ccc(OC(F)(F)F)cc1)c1nn(-c2ncccn2)c2ccccc12", "viability at 28.5 h, 10 µM / %": 98.9}
{"Compound": "CC(C)NC(=O)[C@@H](C)C1CC[C@@]2(C)CC[C@H](NC(=O)C3CC3)[C@@H](C)[C@@H]2[C@H]1O (stereo partly shown)", "viability at 28.5 h, 10 µM / %": 85}
{"Compound": "CCS(=O)(=O)N1C[C@H]2CC[C@](O)(c3ccc(C)cc3)[C@H]2C1", "viability at 28.5 h, 10 µM / %": 107}
{"Compound": "CC(C)OC(=O)Cc1nc(CN2CCOC(c3ccc(F)cc3)C2)cs1 (stereo not shown)", "viability at 28.5 h, 10 µM / %": 119}
{"Compound": "COc1ccc(CNC(=O)C2CCCN(c3cnc4ccccc4n3)C2)cc1 (stereo not shown)", "viability at 28.5 h, 10 µM / %": 112}
{"Compound": "CN(C)S(=O)(=O)c1ccc(Cl)c(C(=O)Nc2cccc([N+](=O)[O-])c2)c1", "viability at 28.5 h, 10 µM / %": 103}
{"Compound": "COc1cccc2c1OC(c1cccnc1)N1N=C(c3cccc(O)c3)CC21 (stereo not shown)", "viability at 28.5 h, 10 µM / %": 104}

====

Listed below: viability at 28.5 h, 10 µM values for each entry.
Assay explanation: in vitro
Protocol conditions: human, hela cells, % viability
Parameter: viability at 28.5 h, 10 µM (%)

{"Molecule": "CCC(C(=O)Nc1sc2c(c1C(N)=O)CCCCCC2)c1ccccc1 (stereo not drawn)", "Parameter": "viability at 28.5 h, 10 µM", "Value": 85.8}
{"Molecule": "Cc1nnnn1-c1cc(NC(=O)NCC2CCCO2)ccc1F (stereo not drawn)", "Parameter": "viability at 28.5 h, 10 µM", "Value": 105}
{"Molecule": "COc1ccc(Cl)cc1C(=O)Nc1cc(C)c2c(=O)oc3ccccc3c2n1", "Parameter": "viability at 28.5 h, 10 µM", "Value": 108}
{"Molecule": "Cc1cc(COc2nccnc2OC2CCN(CCN3CCOCC3)CC2)no1 [CBK082961T]", "Parameter": "viability at 28.5 h, 10 µM", "Value": 103}
{"Molecule": "O=C(COc1ccc2ccccc2c1Br)Nc1ccc(S(=O)(=O)N2CCCC2)cc1", "Parameter": "viability at 28.5 h, 10 µM", "Value": 99.3}
{"Molecule": "Cc1ccc(S(=O)(=O)N(C)CC(=O)O/N=C(\\N)c2cccnc2)cc1", "Parameter": "viability at 28.5 h, 10 µM", "Value": 110}
{"Molecule": "Nc1nc(OCCc2cccs2)cnc1-c1ccc(OC(F)(F)F)cc1", "Parameter": "viability at 28.5 h, 10 µM", "Value": 92.7}
{"Molecule": "COc1ccc(C(C)C)cc1-c1cnc2[nH]c(=O)n(-c3ccc4[nH]ccc4c3)c2n1", "Parameter": "viability at 28.5 h, 10 µM", "Value": 90.7}
{"Molecule": "Cc1csc(CN(C)C(=O)c2cc3sccc3[nH]2)n1", "Parameter": "viability at 28.5 h, 10 µM", "Value": 92.7}
{"Molecule": "Cc1noc2nc(C3CCN(C(=O)C(C)C)CC3)cc(C(F)F)c12", "Parameter": "viability at 28.5 h, 10 µM", "Value": 79.9}
{"Molecule": "CC(C)CNc1nc2c(ncn2[C@H]2C[C@@H](O)[C@@H](CO)O2)c(=O)[nH]1", "Parameter": "viability at 28.5 h, 10 µM", "Value": 94.8}
{"Molecule": "CN1CCN(C(=O)c2ccsc2NS(=O)(=O)c2ccc(Oc3ccccc3)cc2)CC1", "Parameter": "viability at 28.5 h, 10 µM", "Value": 87}
{"Molecule": "CCCCC(c1cccnc1)N(C)C(=O)c1ccnc(-n2cnnc2)c1 (stereo not drawn)", "Parameter": "viability at 28.5 h, 10 µM", "Value": 84.2}
{"Molecule": "CCOc1ccc(-c2ccc(C#N)c(=S)[nH]2)cc1", "Parameter": "viability at 28.5 h, 10 µM", "Value": 88.2}
{"Molecule": "COc1cc(Cc2c(OCCN(C)C)nc3ccccn3c2=O)cc(OC)c1OC [CBK005004C]", "Parameter": "viability at 28.5 h, 10 µM", "Value": 99.9}
{"Molecule": "Cc1nn(Cc2ccc(Cl)cc2)c(C)c1NC(=O)CSc1nc(-c2ccc(F)cc2)cc(C(F)(F)F)n1", "Parameter": "viability at 28.5 h, 10 µM", "Value": 89.7}
{"Molecule": "COc1ccc(C(=O)Nc2nc3ccc(S(N)(=O)=O)cc3s2)cc1", "Parameter": "viability at 28.5 h, 10 µM", "Value": 96.9}
{"Molecule": "CC(=O)N1C[C@@H](c2cccc(C)c2)[C@@H]2CN(Cc3cccnc3)CC[C@@H]21", "Parameter": "viability at 28.5 h, 10 µM", "Value": 89.7}
